Origin of measurements: paper PMC3997752

Listed here: items and their measured IC50.
TESTED_SYSTEM: recombinant PfUDG (Plasmodium falciparum, UniProt Q8ILU6, P157T)
Sequence (Q8ILU6 whole entry P157T): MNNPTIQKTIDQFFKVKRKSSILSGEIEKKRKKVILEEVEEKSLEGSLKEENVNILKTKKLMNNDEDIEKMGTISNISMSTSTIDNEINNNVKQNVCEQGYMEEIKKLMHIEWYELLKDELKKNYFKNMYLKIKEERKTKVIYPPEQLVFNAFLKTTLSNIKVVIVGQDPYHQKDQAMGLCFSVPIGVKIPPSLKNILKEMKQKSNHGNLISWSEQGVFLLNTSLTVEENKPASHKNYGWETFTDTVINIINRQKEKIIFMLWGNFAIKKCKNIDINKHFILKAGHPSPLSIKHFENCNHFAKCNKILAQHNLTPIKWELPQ
TEST_PROTOCOL: Inhibition of recombinant PfUDG activity (32P-labelled oligo-U glycosylase assay)

Worked examples, 2 compounds total:
CC(C)Cc1ccc(Nc2cc(=O)[nH]c(=O)[nH]2)cc1 [compound 12, 6-(p-i-Butylanilino)uracil]	> 400 µM
CC(C)c1ccc(Nc2cc(O)nc(O)n2)cc1 [compound 11, 6-(p-i-Propylanilino)uracil]	> 400 µM

*Q* Answer with reported IC50 of CC(C)CCc1ccc(Nc2cc(=O)[nH]c(=O)[nH]2)cc1 [compound 10, 6-(p-i-Pentylanilino)uracil]
*A* > 400 µM
